biological target: CDK-2/cyclin A (Homo sapiens, UniProt P24941); assay: CDK inhibition assay, CDK-2/cyclin A against Histone HI, 33P-ATP; assay type: biochemical; conditions: at 500 nM; Table-6; read-out: In vitro CDK2 % of inhibition
Could you please report measured inhibition at 0.5 µM for the items listed next?

Can you give me inhibition at 0.5 µM for all of these, one by one?
1. Fc1cccc(-c2cnc3[nH]cc(-c4ccnc(NC5CCCCCC5)n4)c3c2)c1
2. Fc1cccc(-c2cnc3[nH]cc(-c4ccnc(NC5CCCC5)n4)c3c2)c1
3. Clc1ccc(-c2cnc3[nH]cc(-c4ccnc(NC5CCCC5)n4)c3c2)cc1

> 70%
> 70%
> 50%

Can you give me inhibition at 0.5 µM for all of these, one by one?
1. Cc1ccc(-c2cnc3[nH]cc(-c4ccnc(NC5CCCCCC5)n4)c3c2)cc1
2. FC(F)(F)c1ccc(-c2cnc3[nH]cc(-c4ccnc(NC5CCCC5)n4)c3c2)cc1

> 50%
< 50%

This collection of values is drawn from patent EP3383875B1.
